Where do the numbers come from? From ChEMBL document CHEMBL5058577.

System: Fibroblast
experimental.protocol: Multiplex assay against human fibroblast
Format: toxicity, cell-based
test.settings: 12 h, 10 µM, compound concentration 10 uM, replicate 2
Non-standard residues stand in square brackets, D forms with d. Residues, ends and D or L forms follow the SMILES beside them.
property: Population Healthy Nuclei (%)
Answer format: numeric, % implied, no suffix.

A selection of reference data follows.
COCCCN1CCC(NC(=O)c2cc(Cl)c(N)c3c2OCC3)CC1 [PRUCALOPRIDE]
46
CC(C)C[C@@H]1NC(=O)[C@@H](C(C)C)NC(=O)[C@@H]2CCCN2C(=O)[C@@H](CC(=O)O)NC(=O)[C@@H](Cc2c[nH]c3ccccc23)NC1=O [BQ-123] (cyclo(L[dW][dD]P[dV]))
48
CC(C)(O)C(=O)N1CCN(c2ccc(C(F)(F)F)c(C3=C(c4c[nH]c5ccccc45)C(=O)NC3=O)c2)CC1
31
S=C(NCCCc1c[nH]cn1)NCCCN(Cc1ccc(Cl)c(Cl)c1)c1ccc(Br)cn1
53
O=C(NCCNCC(O)COc1ccc(O)cc1)N1CCOCC1.O=C(NCCNCC(O)COc1ccc(O)cc1)N1CCOCC1.O=C(O)/C=C/C(=O)O (configuration not stated) [XAMOTEROL FUMARATE]
49

Input: Quick one: Population Healthy Nuclei (%) for CSc1nc(NC2CCCC2)c([N+](=O)[O-])c(NC2CCCC2)n1 [GS-39783] ?
Output: 52

Input: Cool, now `COc1cc(OC2CCN(C(C)=O)CC2)ccc1C(=O)N1CCC(N2C(=O)OCc3ccccc32)CC1`
Output: 40
